Property: IC50; scope: individual compounds
# System: Plasmodium falciparum clone CDC/Indochina III (W-2)
# EXPERIMENT NOTES: In vitro antimalarial [3H]-hypoxanthine incorporation serial dilution assay, W2
# Assay type: cell-based
# CONDITION NOTES: Plasmodium falciparum, W2, 72 h, P. falciparum W2, parasites exposed for 72 hours
METRIC NAME: IC50 (µg/mL)

* CC[C@H]1OC(=O)[C@H](C)[C@@H](O[C@H]2C[C@@](C)(OC)[C@@H](O)[C@H](C)O2)[C@H](C)[C@@H](O[C@@H]2O[C@H](C)C[C@H](N(C)C)[C@H]2O)[C@](C)(O)C[C@@H](C)CN(CCCNC(=O)NC(C)c2cccc3ccccc23)[C@H](C)[C@@H](O)[C@]1(C)O (stereo partly shown) | 0.246
* CC[C@H]1OC(=O)[C@H](C)[C@@H](O)[C@H](C)[C@@H](O[C@@H]2O[C@H](C)C[C@H](N(C)C)[C@H]2O)[C@](C)(O)C[C@@H](C)CN(CCCNC(=O)Nc2ccc3ccccc3c2)[C@H](C)[C@@H](O)[C@]1(C)O | 0.467
* CC[C@H]1OC(=O)[C@H](C)[C@@H](O[C@H]2C[C@@](C)(OC)[C@@H](O)[C@H](C)O2)[C@H](C)[C@@H](O[C@@H]2O[C@H](C)C[C@H](N(C)C)[C@H]2O)[C@](C)(O)C[C@@H](C)CN(CCCN(CCC#N)C(=O)Nc2ccc(Cl)cc2Cl)[C@H](C)[C@@H](O)[C@]1(C)O | 0.217
* CC[C@H]1OC(=O)[C@H](C)[C@@H](O[C@H]2C[C@@](C)(OC)[C@@H](O)[C@H](C)O2)[C@H](C)[C@@H](O[C@@H]2O[C@H](C)C[C@H](N(C)C)[C@H]2O)[C@](C)(O)C[C@@H](C)CN(CCCN(CCC#N)C(=O)NC(C)c2cccc3ccccc23)[C@H](C)[C@@H](O)[C@]1(C)O (stereo partly shown) | 0.308
* CC[C@H]1OC(=O)[C@H](C)[C@@H](O)[C@H](C)[C@@H](O[C@@H]2O[C@H](C)C[C@H](N(C)C)[C@H]2O)[C@](C)(O)C[C@@H](C)CN(CCCN(CCC#N)C(=O)NC(C)c2cccc3ccccc23)[C@H](C)[C@@H](O)[C@]1(C)O (stereo partly shown) | 0.361
* CC[C@H]1OC(=O)[C@H](C)[C@@H](O[C@H]2C[C@@](C)(OC)[C@@H](O)[C@H](C)O2)[C@H](C)[C@@H](O[C@@H]2O[C@H](C)C[C@H](N(C)C)[C@H]2O)[C@](C)(O)C[C@@H](C)CN(CCCNC(=O)NS(=O)(=O)c2ccccc2C)[C@H](C)[C@@H](O)[C@]1(C)O | 1
* CC[C@H]1OC(=O)[C@H](C)[C@@H](O[C@H]2C[C@@](C)(OC)[C@@H](O)[C@H](C)O2)[C@H](C)[C@@H](O[C@@H]2O[C@H](C)C[C@H](N(C)C)[C@H]2O)[C@](C)(O)C[C@@H](C)CN(C)[C@H](C)[C@@H](O)[C@]1(C)O [azithromycin, reference compound] | 1.76
